- Assay Info: total protein half-life in vivo (active degradation + dilution); higher = more stable protein
- Run Conditions: wild type E. coli NCM3722; growth: C-lim chemostat; doubling time 6 h
Here the recorded total protein half-life in vivo is given for each entry.
Assay Metric: total protein half-life in vivo (h)

[[record]]
sequence = "MSIKLIAVDMDGTFLSDQKTYNRERFMAQYQQMKAQGIRFVVASGNQYYQLISFFPEIANEIAFVAENGGWVVSEGKDVFNGELSKDAFATVVEHLLTRPEVEIIACGKNSAYTLKKYDDAMKTVAEMYYHRLEYVDNFDNLEDIFFKFGLNLSDELIPQVQKALHEAIGDIMVSVHTGNGSIDLIIPGVHKANGLRQLQKLWGIDDSEVVVFGDGGNDIEMLRQAGFSFAMENAGSAVVAAAKYRAGSNNREGVLDVIDKVLKHEAPFDQ"
assay_metric = "total protein half-life in vivo"
readout_units = "h"
measured_value = 3.96

[[record]]
sequence = "MTIKNVICDIDGVLMHDNVAVPGAAEFLHGIMDKGLPLVLLTNYPSQTGQDLANRFATAGVDVPDSVFYTSAMATADFLRRQEGKKAYVVGEGALIHELYKAGFTITDVNPDFVIVGETRSYNWDMMHKAAYFVANGARFIATNPDTHGRGFYPACGALCAGIEKISGRKPFYVGKPSPWIIRAALNKMQAHSEETVIVGDNLRTDILAGFQAGLETILVLSGVSSLDDIDSMPFRPSWIYPSVAEIDVI [P0AF24]"
assay_metric = "total protein half-life in vivo"
readout_units = "h"
measured_value = 5.71

[[record]]
sequence = "MSFFISDAVAATGAPAQGSPMSLILMLVVFGLIFYFMILRPQQKRTKEHKKLMDSIAKGDEVLTNGGLVGRVTKVAENGYIAIALNDTTEVVIKRDFVAAVLPKGTMKAL [P0ADZ7]"
assay_metric = "total protein half-life in vivo"
readout_units = "h"
measured_value = 6.02

[[record]]
sequence = "MADVHDKATRSKNMRAIATRDTAIEKRLASLLTGQGLAFRVQDASLPGRPDFVVDEYRCVIFTHGCFWHHHHCYLFKVPATRTEFWLEKIGKNVERDRRDISRLQELGWRVLIVWECALRGREKLTDEALTERLEEWICGEGASAQIDTQGIHLLA"
assay_metric = "total protein half-life in vivo"
readout_units = "h"
measured_value = 4.16

[[record]]
sequence = "MIALIQRVTRASVTVEGEVTGEIGAGLLVLLGVEKDDDEQKANRLCERVLGYRIFSDAEGKMNLNVQQAGGSVLVVSQFTLAADTERGMRPSFSKGASPDRAEALYDYFVERCRQQEMNTQTGRFAADMQVSLVNDGPVTFWLQV [P0A6M4]"
assay_metric = "total protein half-life in vivo"
readout_units = "h"
measured_value = 5.48

[[record]]
sequence = "MERIVVTLGERSYPITIASGLFNEPASFLPLKSGEQVMLVTNETLAPLYLDKVRGVLEQAGVNVDSVILPDGEQYKSLAVLDTVFTALLQKPHGRDTTLVALGGGVVGDLTGFAAASYQRGVRFIQVPTTLLSQVDSSVGGKTAVNHPLGKNMIGAFYQPASVVVDLDCLKTLPPRELASGLAEVIKYGIILDGAFFNWLEENLDALLRLDGPAMAYCIRRCCELKAEVVAADERETGLRALLNLGHTFGHAIEAEMGYGNWLHGEAVAAGMVMAARTSERLGQFSSAETQRIITLLKRAGLPVNGPREMSAQAYLPHMLRDKKVLAGEMRLILPLAIGKSEVRSGVSHELVLNAIADCQSA"
assay_metric = "total protein half-life in vivo"
readout_units = "h"
measured_value = 5.16

[[record]]
sequence = "MNIKGKALLAGCIALAFSNMALAEDIKVAVVGAMSGPVAQYGDQEFTGAEQAVADINAKGGIKGNKLQIVKYDDACDPKQAVAVANKVVNDGIKYVIGHLCSSSTQPASDIYEDEGILMITPAATAPELTARGYQLILRTTGLDSDQGPTAAKYILEKVKPQRIAIVHDKQQYGEGLARAVQDGLKKGNANVVFFDGITAGEKDFSTLVARLKKENIDFVYYGGYHPEMGQILRQARAAGLKTQFMGPEGVANVSLSNIAGESAEGLLVTKPKNYDQVPANKPIVDAIKAKKQDPSGAFVWTTYAALQSLQAGLNQSDDPAEIAKYLKANSVDTVMGPLTWDEKGDLKGFEFGVFDWHANGTATDAK [P0AD96]"
assay_metric = "total protein half-life in vivo"
readout_units = "h"
measured_value = 6.24


meta.source: the supplement of paper PMC11246515
